- System Tested: T1, Recombinant UL141 ectodomain (soluble, released from the Fc fusion), Q6RJQ3
- T1 chain: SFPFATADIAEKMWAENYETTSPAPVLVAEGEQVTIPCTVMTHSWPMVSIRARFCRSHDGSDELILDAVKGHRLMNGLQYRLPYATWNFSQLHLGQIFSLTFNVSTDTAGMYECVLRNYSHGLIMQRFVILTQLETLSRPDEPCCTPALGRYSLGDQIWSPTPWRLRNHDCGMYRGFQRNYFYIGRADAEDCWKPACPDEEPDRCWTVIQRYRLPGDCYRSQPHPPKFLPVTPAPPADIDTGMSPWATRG
- Procedure Summary: SPR
- Condition: chain shown with the change
Quick reference for Kd among some binders

In the examples that follow, each entry is paired with its recorded Kd.
INSERT INTO results (binder, property_measured, measured) VALUES
  ('Human TRAIL-R2-Fc fusion protein (wild type), O14763 M152A (protein) QQDLAPQQRAAPQQKRSSPSEGLCPPGHHISEDGRDCISCKYGQDYSTHWNDLLFCLRCTRCDSGEVELSPCTTTRNTVCQCEEGTFREEDSPEACRKCRTGCPRGMVKVGDCTPWSDIECVHKESG', 'Kd', '7 nM'),
  ('Human TRAIL-R2-Fc fusion protein (wild type), O14763 P150A (protein) QQDLAPQQRAAPQQKRSSPSEGLCPPGHHISEDGRDCISCKYGQDYSTHWNDLLFCLRCTRCDSGEVELSPCTTTRNTVCQCEEGTFREEDSAEMCRKCRTGCPRGMVKVGDCTPWSDIECVHKESG', 'Kd', '8 nM'),
  ('Human TRAIL-R2-Fc fusion protein (wild type), O14763 K155A (protein) QQDLAPQQRAAPQQKRSSPSEGLCPPGHHISEDGRDCISCKYGQDYSTHWNDLLFCLRCTRCDSGEVELSPCTTTRNTVCQCEEGTFREEDSPEMCRACRTGCPRGMVKVGDCTPWSDIECVHKESG', 'Kd', '8 nM'),
  ('Human TRAIL-R2-Fc fusion protein (wild type), O14763 R154A (protein) QQDLAPQQRAAPQQKRSSPSEGLCPPGHHISEDGRDCISCKYGQDYSTHWNDLLFCLRCTRCDSGEVELSPCTTTRNTVCQCEEGTFREEDSPEMCAKCRTGCPRGMVKVGDCTPWSDIECVHKESG', 'Kd', '6 nM');

Exercise: For the binder Human TRAIL-R2-Fc fusion protein (wild type), O14763 M152A; R154A; K155A (protein) QQDLAPQQRAAPQQKRSSPSEGLCPPGHHISEDGRDCISCKYGQDYSTHWNDLLFCLRCTRCDSGEVELSPCTTTRNTVCQCEEGTFREEDSPEACAACRTGCPRGMVKVGDCTPWSDIECVHKESG , give its reported Kd.
Key: 7 nM
